- System Under Test: pm5 (human, sulfated tyrosines at Y15 and Y17)
- Sequence (peptide, as listed by the source): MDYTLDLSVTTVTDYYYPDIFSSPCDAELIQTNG
- Measurement Protocol: ELISA on coated peptide [cont.]

Binder | binding result
3-12 (antibody, V domains shown) VH: QVQLQQPGAVLVKPGASVKMSCKASGYTFTSYNMHWLKQTPGQGLEWIGAIAPGKGDTSHNQKFKGKATLTADKSSSTAYMQLSSLTSEDSAVYYCARRNNYEPFVYWGQGTLVTVSA VL: DIVFTQSPASLAVSLGQRATISCRASESVEYYGTSLMQWYQQKPGQPPKLLIYAASNVESGVPARFSGSGSGTDFSLNIHPVEADDIAMYFCQQSRKVPFTFGSGTKLEIK | binds
3-23 (antibody, V domains shown) VH: QVQLVETGGGLVRPGNSLKLSCVISGFTFSNYRIHWLRQPPGKRLEWIAVITVKSDNYEANYAESVKGRFTISRDDSKSSVYLQMNRLREEDTATYYCSRPDGFSPFVYWGQGTLVTVSA VL: DIKMTQSPSSMYASLGERVTITCKASQDINNYLSWFQQKPGKSPKTLIYRADRLVDGVPSRFSGSGSGQDYSLTISSLDYEDMGIYYCLQYAEFPPTFGAGTKLELK | binds
3-44 (antibody, V domains shown) VH: QVQLKESGPGLVAPSQSLSITCTVSGFSLTDYGVSWIRQPPGKGPEWLGVIWGGGNTYYNSVLKSRLSISNDNSKSQVFLRMNSLQTADTAIYYCARPRRDYYALDYWGQGTSVTVAS VL: DVVMTQTPLSLPVSLGDQASISCRSSQSLVYTNGNTFLHWYLQKPGQSPKLLIYKVSNRFSGVPDRFSGSGSGTDFTLKISRVEAEDLGVYFCSQSTHVPPTFGGGTKLEIK | binds
